test system: sarcoma SJSA-1 tumor model; conditions: 15 mg/kg once a week for three weeks; Table 2
Where a SMILES comes first, the peptide text is derived from it. The star is where a group is joined. X6 = CCCCCN(CCc1c2c(nc3ccccc13)-c1cc3c(c(=O)n1C2)COC(=O)[C@]3(O)CC)*; X8 = CC[C@@]1(O)C(=O)OCc2c1cc1n(c2=O)Cc2c-1nc1ccccc1c2CCN(C1CCCC1)*; X4 = CCCN(CCc1c2c(nc3ccccc13)-c1cc3c(c(=O)n1C2)COC(=O)[C@]3(O)CC)*; Propanoyl(3-maleimido) = O=C1C=CC(=O)N1CCC(=O)*; PEG6 = NCCOCCOCCOCCOCCOCCOCCC(=O)O
The following compounds are shown together with reported Mouse weight (%) values.
Readout name: Mouse weight (%)

CCCN(CCc1c2c(nc3ccccc13)-c1cc3c(c(=O)n1C2)COC(=O)[C@]3(O)CC)C(=O)CNC(=O)[C@H](CC(N)=O)NC(=O)[C@H](C)NC(=O)[C@H](C)NC(=O)CCOCCOCCOCCOCCOCCOCCNC(=O)CCN1C(=O)C=CC1=O [MI-6PEG-AANG-D3] ({Propanoyl(3-maleimido)-PEG6}-AANG-X4): +29%
CCCCCN(CCc1c2c(nc3ccccc13)-c1cc3c(c(=O)n1C2)COC(=O)[C@]3(O)CC)C(=O)CNC(=O)[C@H](CC(N)=O)NC(=O)[C@H](C)NC(=O)[C@H](C)NC(=O)CCOCCOCCOCCOCCOCCOCCNC(=O)CCN1C(=O)C=CC1=O [MI-6PEG-AANG-D4] ({Propanoyl(3-maleimido)-PEG6}-AANG-X6): +27%
CC[C@@]1(O)C(=O)OCc2c1cc1n(c2=O)Cc2c-1nc1ccccc1c2CCN(C(=O)CNC(=O)[C@H](Cc1ccccc1)NC(=O)CNC(=O)CNC(=O)CCOCCOCCOCCOCCOCCOCCNC(=O)CCN1C(=O)C=CC1=O)C1CCCC1 [MI-6PEG-GGFG-D8] ({Propanoyl(3-maleimido)-PEG6}-GGFG-X8): +19%

----------
test system: A2780 ovarian cancer tumor model; test: Efficacy in animal model of A2780 ovarian cancer, 30 mg/kg once a week for two weeks (Example 41); type: in vivo, BALB/c mice; conditions: Day 14
Where a SMILES comes first, the peptide text is derived from it. The star is where a group is joined. X6 = CCCCCN(CCc1c2c(nc3ccccc13)-c1cc3c(c(=O)n1C2)COC(=O)[C@]3(O)CC)*; X1 = CC[C@@]1(O)C(=O)OCc2c1cc1n(c2=O)Cc2c-1nc1ccccc1c2CCN(C1CCC1)*; X4 = CCCN(CCc1c2c(nc3ccccc13)-c1cc3c(c(=O)n1C2)COC(=O)[C@]3(O)CC)*; X5 = CC[C@@]1(O)C(=O)OCc2c1cc1n(c2=O)Cc2c-1nc1ccccc1c2CCN(CC(C)C)*; X3 = CC[C@@]1(O)C(=O)OCc2c1cc1n(c2=O)Cc2c-1nc1ccccc1c2CCN(C1CC1)*; Propanoyl(3-maleimido) = O=C1C=CC(=O)N1CCC(=O)*; PEG6 = NCCOCCOCCOCCOCCOCCOCCC(=O)O
Readout name: Mouse weight (%) on Day 14

CC[C@@]1(O)C(=O)OCc2c1cc1n(c2=O)Cc2c-1nc1ccccc1c2CCN(C(=O)[C@H](CC(C)C)NC(=O)[C@H](CC(N)=O)NC(=O)[C@H](C)NC(=O)[C@H](C)NC(=O)CCOCCOCCOCCOCCOCCOCCNC(=O)CCN1C(=O)C=CC1=O)C1CCC1 [MI-6PEG-AANL-D7] ({Propanoyl(3-maleimido)-PEG6}-AANL-X1): +4.8%
CC[C@@]1(O)C(=O)OCc2c1cc1n(c2=O)Cc2c-1nc1ccccc1c2CCN(C(=O)CNC(=O)[C@H](CC(N)=O)NC(=O)[C@H](C)NC(=O)[C@H](C)NC(=O)CCOCCOCCOCCOCCOCCOCCNC(=O)CCN1C(=O)C=CC1=O)C1CC1 [MI-6PEG-AANG-D6] ({Propanoyl(3-maleimido)-PEG6}-AANG-X3): +8.5%
CCCN(CCc1c2c(nc3ccccc13)-c1cc3c(c(=O)n1C2)COC(=O)[C@]3(O)CC)C(=O)[C@H](CC(C)C)NC(=O)[C@H](CC(N)=O)NC(=O)[C@H](C)NC(=O)[C@H](C)NC(=O)CCOCCOCCOCCOCCOCCOCCNC(=O)CCN1C(=O)C=CC1=O [MI-6PEG-AANL-D3] ({Propanoyl(3-maleimido)-PEG6}-AANL-X4): +12.2%
CC[C@@]1(O)C(=O)OCc2c1cc1n(c2=O)Cc2c-1nc1ccccc1c2CCN(C(=O)CNC(=O)[C@H](CC(N)=O)NC(=O)[C@H](C)NC(=O)[C@H](C)NC(=O)CCOCCOCCOCCOCCOCCOCCNC(=O)CCN1C(=O)C=CC1=O)C1CCC1 [MI-6PEG-AANG-D7] ({Propanoyl(3-maleimido)-PEG6}-AANG-X1): +15.6%
CCCCCN(CCc1c2c(nc3ccccc13)-c1cc3c(c(=O)n1C2)COC(=O)[C@]3(O)CC)C(=O)CNC(=O)[C@H](CC(N)=O)NC(=O)[C@H](C)NC(=O)[C@H](C)NC(=O)CCOCCOCCOCCOCCOCCOCCNC(=O)CCN1C(=O)C=CC1=O [MI-6PEG-AANG-D4] ({Propanoyl(3-maleimido)-PEG6}-AANG-X6): +9.6%
CC[C@@]1(O)C(=O)OCC2=C1C=C1c3nc4ccccc4c(CCN(C(=O)OCc4ccc(NC(=O)[C@H](CC(N)=O)NC(=O)[C@H](C)NC(=O)[C@H](C)NC(=O)CCOCCOCCOCCOCCOCCOCCNC(=O)CCN5C(=O)C=CC5=O)cc4)C(C)C)c3CN1C2 [MI-6PEG-AAN-PAB-Belotecan]: +1.2%
CC[C@@]1(O)C(=O)OCc2c1cc1n(c2=O)Cc2c-1nc1ccccc1c2CCN(CC(C)C)C(=O)[C@H](CC(C)C)NC(=O)[C@H](CC(N)=O)NC(=O)[C@H](C)NC(=O)[C@H](C)NC(=O)CCOCCOCCOCCOCCOCCOCCNC(=O)CCN1C(=O)C=CC1=O [MI-6PEG-AANL-D5] ({Propanoyl(3-maleimido)-PEG6}-AANL-X5): +7.9%

----------
The following molecules are shown together with reported Mouse weight (%) values.
system: colo320 colorectal cancer tumor model; settings: 45 mg/kg once a week for four weeks; Table 8
Where a SMILES comes first, the peptide text is derived from it. The star is where a group is joined. Belotecan = CC[C@@]1(O)C(=O)OCc2c1cc1n(c2=O)Cc2c-1nc1ccccc1c2CCN(C(C)C)*; X2 = CCCCN(CCc1c2c(nc3ccccc13)-c1cc3c(c(=O)n1C2)COC(=O)[C@]3(O)CC)*; X1 = CC[C@@]1(O)C(=O)OCc2c1cc1n(c2=O)Cc2c-1nc1ccccc1c2CCN(C1CCC1)*; X3 = CC[C@@]1(O)C(=O)OCc2c1cc1n(c2=O)Cc2c-1nc1ccccc1c2CCN(C1CC1)*; Propanoyl(3-maleimido) = O=C1C=CC(=O)N1CCC(=O)*; PEG6 = NCCOCCOCCOCCOCCOCCOCCC(=O)O
Readout name: Mouse weight (%)

CC[C@@]1(O)C(=O)OCc2c1cc1n(c2=O)Cc2c-1nc1ccccc1c2CCN(C(=O)[C@H](CC(C)C)NC(=O)[C@H](CC(N)=O)NC(=O)[C@H](C)NC(=O)[C@H](C)NC(=O)CCOCCOCCOCCOCCOCCOCCNC(=O)CCN1C(=O)C=CC1=O)C1CC1 [MI-6PEG-AANL-D6] ({Propanoyl(3-maleimido)-PEG6}-AANL-X3): +5%
CCCCN(CCc1c2c(nc3ccccc13)-c1cc3c(c(=O)n1C2)COC(=O)[C@]3(O)CC)C(=O)[C@H](CC(C)C)NC(=O)[C@H](CC(N)=O)NC(=O)[C@H](C)NC(=O)[C@H](C)NC(=O)CCOCCOCCOCCOCCOCCOCCNC(=O)CCN1C(=O)C=CC1=O [MI-6PEG-AANL-D4] ({Propanoyl(3-maleimido)-PEG6}-AANL-X2): +18%
CC[C@@]1(O)C(=O)OCc2c1cc1n(c2=O)Cc2c-1nc1ccccc1c2CCN(C(=O)[C@H](CC(C)C)NC(=O)[C@H](Cc1ccccc1)NC(=O)CNC(=O)CNC(=O)CCOCCOCCOCCOCCOCCOCCNC(=O)CCN1C(=O)C=CC1=O)C(C)C [MI-6PEG-GGFL-Belotecan] ({Propanoyl(3-maleimido)-PEG6}-GGFL-Belotecan): +5%
CC[C@@]1(O)C(=O)OCc2c1cc1n(c2=O)Cc2c-1nc1ccccc1c2CCN(C(=O)[C@H](CC(C)C)NC(=O)[C@H](CC(N)=O)NC(=O)[C@H](C)NC(=O)[C@H](C)NC(=O)CCOCCOCCOCCOCCOCCOCCNC(=O)CCN1C(=O)C=CC1=O)C(C)C [MI-6PEG-AANL-Belotecan] ({Propanoyl(3-maleimido)-PEG6}-AANL-Belotecan): +2%
CC[C@@]1(O)C(=O)OCc2c1cc1n(c2=O)Cc2c-1nc1ccccc1c2CCN(C(=O)[C@H](CC(C)C)NC(=O)[C@H](CC(N)=O)NC(=O)[C@H](C)NC(=O)[C@H](C)NC(=O)CCOCCOCCOCCOCCOCCOCCNC(=O)CCN1C(=O)C=CC1=O)C1CCC1 [MI-6PEG-AANL-D7] ({Propanoyl(3-maleimido)-PEG6}-AANL-X1): +9%
